Data provenance: ChEMBL document CHEMBL3988442

# testSystem: Tyrosyl-tRNA synthetase, putative (Trypanosoma cruzi (strain CL Brener))
# assayName: Trypanosoma cruzi tyrosyl tRNA synthetase (TcYRS) SOP
# Format: functional
# Design: scale not given: direction of the effect not stated beside the values
# appliedConditions: 30 µM
Decision: Percent Effect beneath 10% gives Fulfilled; Percent Effect meeting or exceeding 10% gives Not fulfilled.

Answered cases to consult:
compound | qualitativeLabel
CC(C)c1ncncc1C(=O)NCCN1CCCS1(=O)=O | Not fulfilled
CC1COCCN1C(=O)c1cccc(OCc2cscn2)c1 (stereo unspecified) | Not fulfilled
Cc1ccc(N2CCC3(CCCN(C(=O)c4cccnc4)C3)C2)nn1 (stereo unspecified) | Fulfilled
CC(C)Cc1noc(CN2CCN(C(=O)c3ccco3)CC2)n1 | Fulfilled
Cc1cccc(-c2noc(CN3CCCC(Cn4cncn4)C3)n2)c1 (stereo unspecified) | Not fulfilled
COc1ccc(CN2C[C@H](OCC3CCOCC3)[C@H]3COC[C@H]32)cc1 | Not fulfilled
CCc1noc(C(C)N(C)CC(=O)Nc2c(C)cccc2C)n1 (stereo unspecified) | Not fulfilled
Cc1nn2cccnc2c1C(=O)N1CCCC(Nc2ccccc2)C1 (stereo unspecified) | Fulfilled
Cc1cnccc1N1CCCN(C(=O)CCCS(N)(=O)=O)CC1 | Not fulfilled
COc1cccc(CNc2c(C)cnc3c2c(=O)n(C)c(=O)n3C)c1 | Not fulfilled

Continue with the next compound.
Please indicate whether the reported Percent Effect of "Cc1nc(CCC(=O)NC2CCC2)cc(C2CCNCC2)n1" is strictly below 10%.
Not fulfilled

====

# testSystem: AMP-activated protein kinase, AMPK (Homo sapiens) (UniProt P54646+O43741+P54619+Q9UGJ0+Q9Y478+Q13131+Q9UGI9)
# assayName: AMP-dependent Kinase enzyme assay. An in vitro enzyme assay that detects ADP turnover that is directly proportional to AMPK activity. This uses naive AMPK that is activated during the assay with MK-8722
# Assay type: functional
# Design: scale not given: direction of the effect not stated beside the values
# appliedConditions: 30 µM
measurementKind: Percent Effect
A complete answer gives the number and then names the unit.

Study these solved cases before continuing.
compound | measuredValue
Cc1nc(NC(=O)CNC(=O)c2c(F)cccc2Cl)n[nH]1 | 2.15%
Cc1cccc(-c2noc(CN3CC(n4cc(C)cn4)C3)n2)c1 | -3.33%
CCCn1nccc1C(=O)N1CCCN(CCCc2ccccc2)CC1 | -4.71%
O=C(NCCCc1ccncc1)C1CCCN(Cc2ccco2)C1 (configuration not stated) | 3.79%
CC(C(=O)NCCCn1ccnc1)n1cc(Br)cn1 (configuration not stated) | -2.79%
Cn1cc(CN2CC[C@H]3OCC[C@@H](C(=O)N4CCCCO4)[C@@H]3C2)cn1 | -0.147%
CS(=O)(=O)c1ccccc1C(=O)NCC1Cc2ccccc2O1 (configuration not stated) | -2.95%
CN(CCCc1cnn(C)c1)C(=O)C1CCOC1 (configuration not stated) | 3.21%
Cc1cc(C)n(-c2cc(N3CCN(C(=O)C(C)(C)C)CC3)nc(C)n2)n1 | -1.22%
Cn1cccc1C(=O)N1CCCC2(CCN(CCN3CCCC3)C2=O)C1 (configuration not stated) | 0.774%

response.value for "COCCNC(=O)c1ccc(C)c(-n2cccc2)c1" (field: Percent Effect) = 4.41%

Sample "Cn1ccnc1-c1cccc(NC(=O)NCCN2CCOCC2)c1" ; Percent Effect observed: -5.8%
